- assay: NCI Yeast Anticancer Drug Screen. Data for the mec2-1 strain (AID 157)
- condition set: S. cerevisiae mec2-1 strain, at 100.0 µM, stronger effect = higher value
- Experimental: Growth inhibition of yeast strains with defined genetic alterations is measured as a screen for potential anti-cancer activity. Selected strains with alterations in DNA damage repair or cell cycle control were exposed to compounds and growth inhibition was measured relative to vehicle treated controls. The strain used in this assay is mec2-1
This is part of a sample that, as a whole, favours compounds with a hit. Of some 79,000 tested, about 15% had one in any assay.
# growth inhibition values compiled below
test readout: growth inhibition (%)

| compound | readout number |
| --- | --- |
| CCOC(=O)C(NC(=O)c1ccccc1)[CH](c1ccccc1)[Sn]([c]1ccccc1)([c]1ccccc1)[c]1ccccc1 (centres undefined) | 95 |
| CCc1nc2ccc(N=Nc3c(O)ccc4ccccc34)cc2[nH]1 | 93 |
| COc1ccc2nc3cccc([N+](=O)[O-])c3c(NCCCO)c2c1 | 96 |
| CC(=O)O/N=C/c1c2ccccc2cc2ccccc12 | 26 |
| COc1ccc2nc(N/N=C/c3sccc3C)cc(C)c2c1 | 95 |
| O=C1c2ccccc2C(=O)C1C(c1ccc(F)cc1)C1C(=O)c2ccccc2C1=O | 83 |
| N=C(N)c1ccc(N=Nc2c(O)ccc3c2[nH]c2ccccc23)cc1 | 97 |
| Cc1nc2ccc(NCCN(C)C)c3c(=O)c4ccccc4n1c23 | 37 |
| COc1ccc(CCN2C(=O)C=CC2=O)cc1OC | 100 |
| COc1cc(NCCCCCNC(C)C)c2ncccc2c1Cl | 10 |
| CC1=Cc2ccc(C)cc2C(=O)C1=O | 99 |
| CCCCCCCCCCCCCCCCCN | 93 |
| O=C(O)/C=C\C(=O)NNc1ccc(Br)cc1 | 99 |
| C#CC1=CC(=O)C(OC)=CC1=O | 99 |
| CC(C)OC(CCC#N)c1ccc(Cl)cc1 (centres undefined) | 7 |
| OC1C#CCSCC#C/C=C\1 (centres undefined) | 97 |
| O=C(O)[C@H]1[C@@H](C2CCCCC2)O[C@@H](C2CCCCC2)O[C@H]1C(F)(F)F | 5 |
| [N-]=[N+]=NC1CC(n2ccc(=O)[nH]c2=O)OC1COC(c1ccccc1)(c1ccccc1)c1ccccc1 (centres undefined) | 85 |
| Nc1nc(Nc2ccccc2)nc(Nc2ccccc2)n1 | 81 |
| CCOc1nc(OCC)nc(-c2cccn2-c2ccccc2)n1 | 93 |
| Cc1cc(NC(=S)SCc2ccc(Cl)cc2)ccc1Cl | 98 |
| S=C1NC2=C(CSC/C2=C\c2ccc(Cl)cc2)C(c2ccc(Cl)cc2)N1 (centres undefined) | 77 |
| CCOC(=O)C1=C(C)NC(C)=C(C(=O)OCC)C1c1cccc([N+](=O)[O-])c1 | 83 |
| CN(C)c1ccc(/C=C/c2ccnc3ccc4ccccc4c23)cc1 | 82 |

###

# growth inhibition values compiled below
- assay: NCI Yeast Anticancer Drug Screen. Data for the rad14 strain (AID 159);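 further: 0% = growth of vehicle-treated control cultures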
- condition set: S. cerevisiae rad14 strain growth inhibition; at 100.0 µM; stronger effect = higher value
Compounds without any hit were thinned out: in the full panel of roughly 79,000, 15% have a hit. Active and inactive are the calls of the source. No stated cut-off is given here; in the data, active means growth inhibition above about 70%; inactive means the rest.

| compound | growth inhibition |
| --- | --- |
| BrC/C=C/C[P+](c1ccccc1)(c1ccccc1)c1ccccc1 | 99% (active) |
| CCCCOc1ccc(Nc2c3ccccc3nc3ccccc23)cc1 | 61% (inactive) |
| Cn1c(COc2ccc(/C=N/NC(=O)CCC(=O)N/N=C/c3ccc(OCc4c[n+]5ccccc5n4C)cc3)cc2)c[n+]2ccccc12 | 97% (active) |
| CN(Cc1cccc2ccccc12)Cc1cccc2ccccc12 | 30% (inactive) |
| CCCCCCCCCCCCCCCCOCC(Cl)COP(=O)(O)OP(=O)(O)OCC1OC(n2cnc3c(N)ncnc32)C(O)C1O (stereo not given) | 46% (inactive) |
| COc1ccc(/C=C2\S/C(=N/Nc3nc(-c4ccccc4)cs3)NC2=O)cc1OC | 92% (active) |
| O=C(N/N=C/c1ccc2c(c1)CCC2)c1ccccc1[N+](=O)[O-] | 95% (active) |
| [O-]c1c2cc(-[n+]3c(-c4ccccc4)cc(-c4ccccc4)cc3-c3ccccc3)cc1COCCOCCOCCOCCOC2 | 81% (active) |
| O=S(=O)(Oc1c(Cl)cc(Cl)cc1Cl)c1ccccc1 | 12% (inactive) |
| CN(C)N1C(=O)SCC(c2ccccc2)(c2ccccc2)C1=O | -19% (inactive) |

Value source: PubChem BioAssay (NCI)
